- Assay Protocol: solvent given as SMILES
- Test Conditions: in CC#N
Classify by measured emission maximum: Met if it is equal to or exceeds 500 nm, Not met if it is smaller.

Before answering, review these 5 worked examples.
CC(C)Oc1ccc(C#Cc2ccc3ccc(=O)oc3c2)cc1; Not met
Nc1ccc(/C=C2\OC(=O)c3ccccc32)cc1; Met
COc1ccc(/C=C/C=C/C=C/c2ccc([N+](=O)[O-])cc2)cc1; Met
CN(C)c1ccc2cc3c(cc2c1)OCCN=C3; Met
c1ccc(Nc2nc(Nc3ccccc3)nc(Nc3ccc4ccc5cccc6ccc3c4c56)n2)cc1; Not met

Test whether the compound COC(=O)c1nc2cnc(N)nc2n1Cc1ccccc1 records emission maximum of 500 nm or higher.
Not met

Test whether the compound CCN1\C(=C/C=C/C=C/C2=[N+](CC)c3ccc4ccccc4c3C2(C)C)C(C)(C)c2c1ccc1ccccc21 records emission maximum of 500 nm or higher.
Met

* * *

The following compounds are listed with their measured emission maximum values.
- Assay Protocol: solvent given as SMILES
- Test Conditions: in CC#N
Give your result in nm as a bare value.

Documented emission maximum of COc1ccc(/C=C/C2=NC(=C\c3ccncc3)/C(=O)N2C)cc1 : 574

Documented emission maximum of CC(=O)c1ccc2ccc3c(NCCC(=O)NCCCCCCc4nc5c(=O)[nH]c(N)nc5n4[C@H]4C[C@H](O)[C@@H](CO)O4)ccc4ccc1c2c43 : 546

Documented emission maximum of CC(O)CC1=N/C(=C\c2cccc(N(C)C)c2)C(=O)N1C (centres undefined) : 642

Documented emission maximum of CC(C)(C)c1cc2cc(N(c3ccccc3)c3ccccc3)c3cc(C(C)(C)C)cc4cc(N(c5ccccc5)c5ccccc5)c(c1)c2c43 : 497.22

Documented emission maximum of c1ccc(Nc2nc(Nc3ccccc3)nc(Nc3ccc4c5cccc6cccc(c7cccc3c74)c65)n2)cc1 : 492

Documented emission maximum of CN(C)c1ccc(-n2c(-c3ccncc3)nc3ccccc32)cc1 : 556

Documented emission maximum of c1ccc(-c2nc3c(ccc4[nH]ccc43)o2)cc1 : 427

Documented emission maximum of COCCN1C(=O)/C(=C/c2cccc(N(C)C)c2)N=C1C : 632

Documented emission maximum of CN(C)c1ccc(-c2nc(C#N)c(C#N)n2C)cc1 : 519

* * *

- Assay Protocol: solvent given as SMILES
- Test Conditions: in OCCO
Measurement Name: emission maximum (nm)
Give your result in nm as a bare value.

These recorded examples may help you get a feel for the data.
COC(=O)C(Cc1ccc2oc(-c3ccc(Nc4ccccc4)cc3)nc2c1)NC(=O)OC(C)(C)C (stereo not drawn); 443.01
N#C[Se]CCCCCOc1ccc2ccc(=O)oc2c1; 392
Oc1ccccc1/C=N/N=C/c1ccccc1O; 584.8
COc1c2ccccc2c(-c2ccccc2)c2ccccc12; 426
CCC1=C(C)C2=C(C)c3c(C)c(CC)c(C)n3[B-](F)(F)[N+]2=C1C; 536.4
Oc1cccc(/N=C/c2ccccc2Oc2ccccc2)c1; 418

Documented emission maximum of O=C(O)C1=C/C(=C/C=[N+]2/c3cc(O)c(C[C@@H]4O[C@H](CO)[C@@H](O)C(O)[C@H]4O)cc3C[C@H]2C(=O)O)C[C@H](C(=O)O)N1 (stereo partly drawn) : 608

Documented emission maximum of CCN(CC)c1ccc(/C=C/C2=[O+][B-](F)(F)Oc3c2c(=O)oc2cc(N(CC)CC)ccc32)cc1 : 653

* * *

- Assay Protocol: solvent given as SMILES
- Test Conditions: in ClCCl
Measurement Name: emission maximum

These recorded examples may help you get a feel for the data.
CN(C)c1ccc(/C=C/c2nc(/C=C/c3ccc(N(c4ccccc4)c4ccccc4)cc3)cc(/C=C/c3ccc(N(c4ccccc4)c4ccccc4)cc3)n2)cc1; 577 nm
c1ccc(-n2c(-c3cccc4ccccc34)nc3c4cccc5ccc6cccc(c6c54)c32)cc1; 424.78 nm
CCCCN(CCCC)c1ccc(C#Cc2cc(C#Cc3c(F)c(F)c(F)c(F)c3F)c(C#Cc3c(F)c(F)c(F)c(F)c3F)cc2C#Cc2ccc(N(CCCC)CCCC)cc2)cc1; 556 nm
Cc1ccc(-c2cc(-c3ccccc3Cl)c3c(N)nc(N4CCCC4)c(C#N)c3n2)cc1; 514 nm
COc1ccc2cc(C#Cc3ccc([N+](=O)[O-])cc3)ccc2c1; 635 nm
COc1ccc(C(=O)NC(C)(C)C)c2c1ccc1c3ccccc3c3ccccc3c12; 407 nm

Documented emission maximum of c1ccc(-c2nc(-c3ccccc3)nc(-c3ccc(-n4c5ccccc5c5c6c(ccc54)-c4ccccc4C6(c4ccccc4)c4ccccc4)cc3)n2)cc1 : 530.05 nm

Documented emission maximum of F[B-]1(F)n2c(Cl)ccc2C(c2c(Cl)cccc2Cl)=C2C=CC(NCc3ccccc3)=[N+]21 : 537 nm

* * *

- Assay Protocol: solvent given as SMILES
- Test Conditions: in CN(C)C=O
Measurement Name: emission maximum (nm)
Give your result in nm as a bare value.

COC(=O)C(Cc1ccc2oc(-c3ccc(Nc4ccccc4)cc3)nc2c1)NC(=O)OC(C)(C)C (centres undefined); 447.51
CC1=[N+]2C(=C(c3c4ccccc4c(-c4ccccc4)c4ccccc34)c3ccc(C)n3[B-]2(F)F)C=C1; 533
CCCCC(CC)Cn1c2cc(C#N)ccc2c2cc(-c3ccc(N(c4ccccc4)c4ccccc4)cc3)c(C#N)cc21 (centres undefined); 543

Documented emission maximum of Cc1cccc(Nc2ccccc2C(=O)O)c1C : 385

Documented emission maximum of c1ccc(-c2nc(-c3ccccc3)nc(-c3ccc(-n4c5ccccc5c5cc(-c6ccc7oc8ccccc8c7c6)ccc54)cc3)n2)cc1 : 526

Documented emission maximum of O=S(=O)([O-])c1ccccc1/C=C/c1ccc(-c2nnc(-c3ccc(/C=C/c4ccccc4S(=O)(=O)[O-])cc3)o2)cc1 : 422

Documented emission maximum of COc1cc(/C=C/c2ccncc2)c(OC)cc1C=O : 463

Documented emission maximum of Oc1ccccc1/C=N/c1ccc(Cn2cncn2)cc1 : 397.99

Documented emission maximum of COc1ccc(C2CC(c3ccc(O)cc3)=NN2c2ccc(S(N)(=O)=O)cc2)cc1 (centres undefined) : 422

* * *

The following compounds are listed with their measured emission maximum values.
- Assay Protocol: solvent given as SMILES
- Test Conditions: in CCOC(C)=O
Give your result in nm as a bare value.

These recorded examples may help you get a feel for the data.
CN(C)c1ccc2nc(/C=C/c3ccccc3)c(=O)oc2c1; 541
Cc1c2oc3c(C)c(N)cc(C(=O)NC4OC(=O)C(C(C)C)N(C)C(=O)CN(C)C(=O)C5CCCN5C(=O)C(C(C)C)NC4=O)c3nc-2c(C(=O)NC2OC(=O)C(C(C)C)N(C)C(=O)CN(C)C(=O)C3CCCN3C(=O)C(C(C)C)NC2=O)c(N)c1=O (configuration not stated); 598.75

Documented emission maximum of CC1(C)Nc2cc(Cl)ccc2-c2[nH]c3ccccc3c(=O)c21 : 482

Documented emission maximum of CCN(CC)c1ccc2cc(-c3cc(SC)c(C#N)c(=O)o3)c(=O)oc2c1 : 554

Documented emission maximum of c1ccc(-c2nc(-c3ccc(-c4nc(-c5ccccc5)c(-c5ccccc5)[nH]4)s3)[nH]c2-c2ccccc2)cc1 : 457

Documented emission maximum of CCn1c(-c2ccc(-c3cccc4ccccc34)cc2)c(-c2ccc3ccccc3c2)c(-c2ccc3ccccc3c2)c1-c1ccc(-c2cccc3ccccc23)cc1 : 429

Documented emission maximum of CCCCCCCCCCCCOc1cc2cc(N(C)C)ccc2cc1C=C(C#N)C#N : 571

* * *

- Assay Protocol: solvent given as SMILES
- Test Conditions: in ClCCl
The following molecules are listed with their measured emission maximum values.

These recorded examples may help you get a feel for the data.
C(#Cc1cc(C#Cc2cccs2)c(C#Cc2cccs2)c(C#Cc2cccs2)c1C#Cc1cccs1)c1cccs1; 425 nm
Cc1cc(-c2nc3c4ccccc4c4ccccc4c3n2-c2ccc(C(C)(C)C)cc2)ccc1-c1ccc(-c2c(-c3ccccc3)nc3ccccn23)cc1; 416 nm
O=C1Nc2ccccc2/C1=C/C(=O)c1ccc(Cl)cc1; 394 nm
COc1ccc(-c2ccc(C(=O)NC(C)(C)C)c3c2ccc2c4ccccc4c4ccccc4c23)cc1; 420 nm
CCCCCCCCOc1ccc(C#Cc2c3cc4ccccc4cc3c(C#C[Si](C(C)C)(C(C)C)C(C)C)c3cc4ccccc4cc23)cc1; 666 nm
COc1ccc(-c2[nH]c(=O)n3c2-c2ccccc2C3=O)c(OC)c1; 488 nm

Documented emission maximum of CCCCC(CC)COc1ccc2nc(-c3ccc(-c4ccccc4)s3)sc2c1 (centres undefined) : 423 nm

Documented emission maximum of COc1ccc(/C=C/C=C/C=C/c2ccc([N+](=O)[O-])cc2)cc1 : 694 nm

Documented emission maximum of CCCCCCOc1ccc(C#Cc2ccc(C#Cc3ccc(OCCCCCC)c(OCCCCCC)c3)c3nsnc23)cc1OCCCCCC : 577 nm
